Source: PubChem BioAssay (NCI)

Examples of molecules with documented GI50 follow.
System: HOP-62 NSCLC

Sample records with GI50:
O=C1OC(c2cccc(C(F)(F)F)c2)(c2cccc(C(F)(F)F)c2)c2ccc3ccccc3c21 ... > 100000 nM
COc1ccccc1N1CCN(CC(O)COc2c(Br)c(Br)c(Br)c3c2OC(C)(C)C3)CC1 (centres undefined) ... 12600 nM
CCCOC(=O)c1ccc2c(c1)[N+](=O)C(C(=O)c1ccccc1)=C(C(F)(F)F)[N+]2=O ... 1800 nM

Now consider the entry below.
query: I would be grateful if you could share the reported GI50 for C[C@]12CC[C@@H]3c4ccc(O)cc4CC[C@H]3[C@@H]1CC[C@@H]2NS(=O)(=O)c1cccc(OC(F)(F)F)c1 .
result: 1990 nM

* * *

Examples of molecules with documented TGI follow.
Tested on: EKVX NSCLC
test.summary: NCI tumour cell line growth inhibition, 48 h

query: Lookup: TGI / EKVX NSCLC / COc1cc(-c2ccc(N=Nc3c(S(=O)(=O)O)cc4cc(S(=O)(=O)O)cc(N)c4c3O)c(OC)c2)ccc1N=Nc1c(S(=O)(=O)O)cc2cc(S(=O)(=O)O)cc(N)c2c1O
result: > 100 µM

query: Same lookup for CCOP(=O)(OCC)OC1c2[nH]ccc2-c2cc(C(=O)OC)[nH]c2C1OC (stereo unspecified) , please.
result: > 100 µM

query: Same lookup for NC(=Nc1ccc(Cl)cc1)c1ccccc1N , please.
result: > 100 µM

query: Same lookup for COc1cc(Nc2nc3c(N)cc(C(F)(F)F)cc3nc2-c2ccccc2)cc(OC)c1OC , please.
result: > 100 µM

query: Same lookup for CCOC(=O)N1CCN(c2ccc3ccc(N)nc3n2)CC1 , please.
result: > 100 µM

query: Same lookup for Cc1cc2nc3c4cc(C=O)ccc4n(CCN(C)C)c3nc2cc1C , please.
result: 6.27 µM

query: Same lookup for C=C1C(=O)c2sccc2C(c2ccc(OC)c(OC)c2)C1COC(C)=O (stereo unspecified) , please.
result: 21.3 µM

query: Same lookup for O=C(O)c1ccc(C=C2Sc3ccccc3S2)cc1 , please.
result: > 100 µM

query: Same lookup for CCCCCC(=O)OCCOCCOCCOCCOCCOCc1ccccc1 , please.
result: > 100 µM

query: Same lookup for Cc1ccc(C2(C)CC/C(=N/N=C3/CCC(C)(c4ccc(C)c(C)c4)c4cc(C)c(C)cc43)c3cc(C)c(C)cc32)cc1C (stereo unspecified) , please.
result: > 100 µM

* * *

Tested on: HS 578T breast
test.summary: NCI tumour cell line growth inhibition, 48 h
readout.name: TGI

Sample records with TGI:
CCCCCC(=O)n1[nH]c(=O)n(-c2ccc(OC)cc2)c1=O ... > 100 µM
O=C(N/N=C\c1c(O)ccc2ccccc12)c1ccncc1 ... > 25 µM

Now consider the entry below.
query: I would be grateful if you could share the reported TGI for CCOP(=O)(OCC)OC1c2[nH]ccc2-c2cc(C(=O)OC)[nH]c2C1OC (stereo not drawn) .
result: > 100 µM

* * *

Test system: UACC-257 melanoma
test.summary: NCI tumour cell line growth inhibition, 48 h
Examples of compounds with documented TGI follow.

C=C(C(=O)OC1C(CO)OC(OCC2CC[C@@H]3C[C@]4(OC(=O)C3=C)C(C)=CC(=O)C24)C(O)C1O)[C@@H]1CCC(CO)C2C(=O)C=C(C)[C@@]2(O)C1 (some centres undefined) ... 5.17 µM
CCOC(=O)Cc1cc(=O)oc2cc(O)ccc12 ... > 100 µM
O=C(CSc1nnc(Cc2ccccc2)o1)Nc1ccc(Cl)cc1Cl ... > 100 µM
O=S(CCc1ccccc1)Nc1ccccc1 (centres undefined) ... > 100 µM

query: I would be grateful if you could share the reported TGI for O=C(c1ccccc1)c1ccc2nc(-c3c(Cl)c(Cl)c(Cl)c(Cl)c3C(=O)N/N=C\C=C\c3ccccc3)[nH]c2c1 .
result: > 100 µM

query: Same lookup for CC(=O)N1CCN([C@H]2CCC[C@@H](NC(=O)c3cc4c(F)ccc(C)c4[nH]3)C2)CC1 , please.
result: 27.8 µM

query: Same lookup for COc1cc(-c2ccc(N=Nc3c(S(=O)(=O)O)cc4cc(S(=O)(=O)O)cc(N)c4c3O)c(OC)c2)ccc1N=Nc1c(S(=O)(=O)O)cc2cc(S(=O)(=O)O)cc(N)c2c1O , please.
result: > 100 µM

query: Same lookup for O=C1Cc2ccccc2N1/N=C\c1ccc([N+](=O)[O-])cc1 , please.
result: > 100 µM

query: Same lookup for Cc1ccc(/C=C2\CN(C)CC3=C2NC(=S)NC3c2ccc(C)cc2)cc1 (centres undefined) , please.
result: 62 µM
